Target: T1, human CD40 on cells (human, UniProt P25942 21-277)
T1 construct: also called CD40 receptor on human B cells
T1 sequence (P25942 21-277 limits assumed): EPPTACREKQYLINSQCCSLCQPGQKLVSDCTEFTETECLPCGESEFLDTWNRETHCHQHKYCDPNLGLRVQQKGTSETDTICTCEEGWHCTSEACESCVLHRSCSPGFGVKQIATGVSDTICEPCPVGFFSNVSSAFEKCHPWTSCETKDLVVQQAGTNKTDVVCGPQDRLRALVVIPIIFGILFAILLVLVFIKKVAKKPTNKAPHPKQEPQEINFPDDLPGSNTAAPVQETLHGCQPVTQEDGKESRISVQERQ
Test: flow cytometry, labelled CD40L on CD40-293T cells, antibody at 5 ug/ml
Overview of recorded Ligand Binding Inhibition (%) for various binders
Report only the number, with the unit % understood.

{"columns": ["binder", "Ligand Binding Inhibition (%)"],
 "data": [
  ["4G7 (antibody, IgG4, V domains shown, also called 4869-1) VH: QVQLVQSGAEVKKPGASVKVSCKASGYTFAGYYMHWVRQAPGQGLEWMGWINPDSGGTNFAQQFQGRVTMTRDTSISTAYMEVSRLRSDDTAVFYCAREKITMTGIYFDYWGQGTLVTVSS VL: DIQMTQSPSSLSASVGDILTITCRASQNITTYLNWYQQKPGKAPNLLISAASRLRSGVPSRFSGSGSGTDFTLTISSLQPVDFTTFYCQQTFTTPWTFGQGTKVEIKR", 24],
  ["39C2 (antibody, IgG4, V domains shown, also called 4887-1) VH: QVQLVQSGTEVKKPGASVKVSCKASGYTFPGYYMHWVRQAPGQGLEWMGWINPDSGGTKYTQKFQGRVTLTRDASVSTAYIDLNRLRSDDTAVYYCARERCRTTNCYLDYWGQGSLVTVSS VL: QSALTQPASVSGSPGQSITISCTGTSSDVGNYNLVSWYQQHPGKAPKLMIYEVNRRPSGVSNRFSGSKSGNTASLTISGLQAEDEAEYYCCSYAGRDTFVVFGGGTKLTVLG", -6],
  ["30A12 (antibody, IgG4, V domains shown, also called 4878-1) VH: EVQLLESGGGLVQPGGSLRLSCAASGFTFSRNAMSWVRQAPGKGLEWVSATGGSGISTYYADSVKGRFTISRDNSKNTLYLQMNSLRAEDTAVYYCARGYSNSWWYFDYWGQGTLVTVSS VL: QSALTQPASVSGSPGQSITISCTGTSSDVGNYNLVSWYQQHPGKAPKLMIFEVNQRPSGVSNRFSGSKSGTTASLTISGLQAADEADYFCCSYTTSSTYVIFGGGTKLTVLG", -15],
  ["29H10 (antibody, V domains shown, also called 4877-1) VH: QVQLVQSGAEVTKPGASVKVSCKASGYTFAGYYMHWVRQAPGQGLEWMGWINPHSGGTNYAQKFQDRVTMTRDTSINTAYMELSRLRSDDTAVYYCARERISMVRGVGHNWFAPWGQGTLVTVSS VL: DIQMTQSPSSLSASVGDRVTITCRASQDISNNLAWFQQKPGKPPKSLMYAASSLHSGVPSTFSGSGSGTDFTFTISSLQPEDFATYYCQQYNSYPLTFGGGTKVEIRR", -8],
  ["35F11 (antibody, IgG4, V domains shown, also called 4868-1) VH: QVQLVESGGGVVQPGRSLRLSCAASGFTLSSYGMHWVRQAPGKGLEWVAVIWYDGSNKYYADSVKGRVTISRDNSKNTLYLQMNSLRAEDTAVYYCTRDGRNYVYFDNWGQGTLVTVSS VL: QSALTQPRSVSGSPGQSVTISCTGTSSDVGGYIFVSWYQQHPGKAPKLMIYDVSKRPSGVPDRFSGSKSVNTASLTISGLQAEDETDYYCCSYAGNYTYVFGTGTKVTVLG", -5]
]}

For the next question, use this binder.
Q: Which Ligand Binding Inhibition (%) is listed for 33H9 (antibody, IgG4, V domains shown, also called 4897-1) VH: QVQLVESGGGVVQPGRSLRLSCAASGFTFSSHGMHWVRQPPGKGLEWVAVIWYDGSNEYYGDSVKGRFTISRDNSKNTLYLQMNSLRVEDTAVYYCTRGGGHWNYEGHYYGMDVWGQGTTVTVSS VL: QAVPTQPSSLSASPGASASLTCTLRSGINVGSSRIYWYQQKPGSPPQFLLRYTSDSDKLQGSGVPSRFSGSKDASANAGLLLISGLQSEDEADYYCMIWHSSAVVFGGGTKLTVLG ?
Result: 9
